Data provenance is ChEMBL document CHEMBL6096689.

Form field: EC50 (one value per entry).
target: ATP-dependent Clp protease proteolytic subunit (Staphylococcus aureus (strain NCTC 8325), UniProt Q2G036); test: Agonist activity at Staphylococcus aureus ClpP extracted from Escherichia coli BL21 (DE3) cells using FITC-casein as substrate assessed as substrate hydrolysis preincubated for 60 mins followed by substrate addition and measured after 1 hrs by fluorescence based analysis
Sequence (Q2G036 whole entry): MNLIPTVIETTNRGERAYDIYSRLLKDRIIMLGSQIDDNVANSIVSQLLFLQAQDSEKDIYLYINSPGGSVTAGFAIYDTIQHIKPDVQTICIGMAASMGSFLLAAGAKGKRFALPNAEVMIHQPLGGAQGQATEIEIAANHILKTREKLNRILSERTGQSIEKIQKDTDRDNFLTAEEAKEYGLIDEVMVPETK
Provide the reading as a plain figure in nM.

1. CC[C@H](C)[C@H]1C(=O)N([C@H](C)c2cccc3ccccc23)C[C@@H]2N(C(=O)NCCCC(F)(F)F)CCC(=O)N12 720
2. CC[C@H](C)[C@H]1C(=O)N(Cc2ccc(OC)c3ccccc23)C[C@@H]2N(C(=O)NCCCC(F)(F)F)CCC(=O)N12 330

Input: Fill in the blank: the reported EC50 of O=C1C2=C(CCN(Cc3ccccc3)C2)N2CCN=C2N1Cc1ccc(C(F)(F)F)cc1 is ____.
Output: 720

* * *

tested on: Staphylococcus aureus; experiment: microbe, parasite or virus in culture; format: functional; conditions: USA300, time 18 hrs
Description: Antibacterial activity against methicillin-resistant Staphylococcus aureus USA300 assessed as inhibition of visible growth of bacteria incubated for 18 hrs by absorbance based analysis
OBSERVABLE: MIC (µg/mL)
Provide the reading as a plain figure in µg/mL.

Input: Under Staphylococcus aureus: MIC value of CN[C@@H]1[C@@H](O)[C@@H](O[C@@H]2[C@@H](O)[C@H](O[C@H]3O[C@H](CN)CC[C@H]3N)[C@@H](N)C[C@H]2N)OC[C@]1(C)O ?
Output: 1

Input: Okay, and CCC[C@@H]1C[C@@H](C(=O)N[C@@H]([C@H]2O[C@H](SC)[C@H](O)[C@@H](O)[C@H]2O)[C@H](C)Cl)N(C)C1 ?
Output: 0.008

* * *

assay: Therapeutic index, ratio of IC50 for human ARH-77 cells to MIC for Staphylococcus aureus Newman; assay type: toxicity, cell-based; conditions: read-out: TI
OBSERVABLE: selectivity ratio
Lab note: record the figure alone, no unit after it.

// known answers, use as guide
1. O=C1C2=C(CCN(Cc3ccccc3)C2)N2CCN=C2N1Cc1ccc(C(F)(F)F)cc1 0.1
2. CC[C@H](C)[C@H]1C(=O)N([C@H](C)c2cccc3ccccc23)C[C@@H]2N(C(=O)NCCCC(F)(F)F)CCC(=O)N12 27

Now look at this one.
Input: Fill in the blank: the reported selectivity ratio of CC[C@H](C)[C@H]1C(=O)N(Cc2ccc(OC)c3ccccc23)C[C@@H]2N(C(=O)NCCCC(F)(F)F)CCC(=O)N12 is ____.
Output: 206

* * *

tested on: Staphylococcus aureus; assay: microbe, parasite or virus in culture; assay type: functional; conditions: NRS-108, time 18 hrs
Description: Antibacterial activity against methicillin-resistant Staphylococcus aureus NRS-108 assessed as inhibition of visible growth of bacteria incubated for 18 hrs by absorbance based analysis
Lab note: anything with MIC below 1 µg/mL is marked true; values at 1 µg/mL or higher are marked false.

COMPOUND	CLASS LABEL
O=C1C2=C(CCN(Cc3ccccc3)C2)N2CCN=C2N1Cc1ccc(C(F)(F)F)cc1	true
Cc1onc(-c2ccccc2)c1C(=O)N[C@@H]1C(=O)N2[C@@H]1SC(C)(C)[C@@H]2C(=O)O [OXACILLIN]	true
CCC[C@@H]1C[C@@H](C(=O)N[C@@H]([C@H]2O[C@H](SC)[C@H](O)[C@@H](O)[C@H]2O)[C@H](C)Cl)N(C)C1 [CLINDAMYCIN]	false
CCn1cc(C(=O)O)c(=O)c2cc(F)c(N3CCNCC3)cc21 [NORFLOXACIN]	false
CC[C@H](C)[C@H]1C(=O)N(Cc2ccc(OC)c3ccccc23)C[C@@H]2N(C(=O)NCCCC(F)(F)F)CCC(=O)N12	true

Input: Just wondering, is MIC of NC[C@H]1O[C@H](O[C@H]2[C@H](O)[C@@H](O[C@H]3O[C@H](CO)[C@@H](O)[C@H](N)[C@H]3O)[C@H](N)C[C@@H]2N)[C@H](O)[C@@H](O)[C@@H]1O [KANAMYCIN] below 1 µg/mL?
Output: false
